Below: a set of entries, each annotated with reported IC50.
- test target: human cyclin B-CDK1 (Homo sapiens)
- measurement description: FlashPlate kinase assay, cyclin B-CDK1, Rb substrate
- cond: recombinant cyclin B-CDK1, Rb phosphorylation, 1 μM ATP
A number alone suffices; assume nM.

compound=COc1ccc(C(=O)c2sc(Nc3ccc(OCCCN)cc3)nc2N)cc1F test_target="human cyclin B-CDK1 (Homo sapiens)" unit_abbrev=nM reported=578
compound=COc1cccc(C(=O)c2sc(Nc3ccc(OCCn4ccnc4)cc3)nc2N)c1 test_target="human cyclin B-CDK1 (Homo sapiens)" unit_abbrev=nM reported=600
compound=Nc1nc(Nc2ccc(OCCN3CCOCC3)cc2)sc1C(=O)c1ccc2c(c1)OCO2 test_target="human cyclin B-CDK1 (Homo sapiens)" unit_abbrev=nM reported=155
compound=CCc1cccc(C(=O)c2sc(Nc3ccc(OC[C@@H](C)N(C)C)cc3)nc2N)c1 test_target="human cyclin B-CDK1 (Homo sapiens)" unit_abbrev=nM reported=2570
compound="Nc1nc(Nc2ccc(OC3CCCNC3)cc2)sc1C(=O)c1cccc(F)c1 (stereo not shown)" test_target="human cyclin B-CDK1 (Homo sapiens)" unit_abbrev=nM reported=416
compound=CCc1ccc(C(=O)c2sc(Nc3ccc(OCCN4CCCC4)cc3)nc2N)cc1F test_target="human cyclin B-CDK1 (Homo sapiens)" unit_abbrev=nM reported=1130
compound=CCN(CC)CCOc1ccc(Nc2nc(N)c(C(=O)c3ccc4c(c3)CCO4)s2)cc1 test_target="human cyclin B-CDK1 (Homo sapiens)" unit_abbrev=nM reported=6430
compound=CCCc1cc(C(=O)c2sc(Nc3ccc(OC[C@@H](C)N4CCCC4)cc3)nc2N)ccc1O test_target="human cyclin B-CDK1 (Homo sapiens)" unit_abbrev=nM reported=177

// returns reported IC50 for input CCCc1cc(C(=O)c2sc(Nc3ccc(OCC(C)(C)N(C)C)cc3)nc2N)ccc1O 291

Please give the measured IC50 for this compound: CCc1cccc(C(=O)c2sc(Nc3ccc(OC[C@@H](C)N4CCCC4)cc3)nc2N)c1 2760

###

- test target: human cyclin B-CDK1 (Homo sapiens)
- measurement description: FlashPlate kinase assay, cyclin B-CDK1, Rb substrate
- cond: recombinant cyclin B-CDK1, Rb phosphorylation, 1 μM ATP
Property: IC50; scope: individual compounds
Numbers only; they are read as nM.

compound=C[C@H](COc1ccc(Nc2nc(N)c(C(=O)c3cccc(F)c3)s2)cc1)N(C)C assay_endpoint=IC50 reported=581

Item Nc1nc(Nc2ccc(OC3CCNC3)cc2)sc1C(=O)c1cccc(F)c1 (stereo not drawn) has what recorded IC50? 158

IC50 lookup needed for COc1ccc(C(=O)c2sc(Nc3ccc(OC4CCNC4)cc3)nc2N)cc1F (stereo not drawn) , thanks. 668

###

- test target: human cyclin D1-CDK4 (Homo sapiens, UniProt P11802)
- Sequence (P11802 whole entry): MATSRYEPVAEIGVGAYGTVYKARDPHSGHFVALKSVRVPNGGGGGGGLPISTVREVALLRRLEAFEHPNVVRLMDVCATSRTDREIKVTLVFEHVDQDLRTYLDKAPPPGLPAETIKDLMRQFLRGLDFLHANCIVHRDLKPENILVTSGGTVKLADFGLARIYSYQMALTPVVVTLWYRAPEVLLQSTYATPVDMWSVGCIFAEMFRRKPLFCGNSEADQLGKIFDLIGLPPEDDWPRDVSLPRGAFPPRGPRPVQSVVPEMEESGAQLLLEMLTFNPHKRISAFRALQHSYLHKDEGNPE
- Sequence (P24385 whole entry partner): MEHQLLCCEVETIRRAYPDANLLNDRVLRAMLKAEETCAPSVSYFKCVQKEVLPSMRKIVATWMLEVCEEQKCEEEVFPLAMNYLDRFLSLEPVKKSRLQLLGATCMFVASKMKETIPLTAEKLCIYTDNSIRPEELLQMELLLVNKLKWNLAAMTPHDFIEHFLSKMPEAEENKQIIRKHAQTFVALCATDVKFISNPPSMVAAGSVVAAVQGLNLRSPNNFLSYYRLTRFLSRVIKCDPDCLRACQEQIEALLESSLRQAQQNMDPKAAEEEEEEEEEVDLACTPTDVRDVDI
- measurement description: FlashPlate kinase assay, cyclin D1-CDK4, Rb substrate
- cond: recombinant cyclin D1-CDK4, Rb phosphorylation, 1 μM ATP
- Protocol: To determine inhibition of Cdk4, Cdk2 and Cdk1 activity, kinase assays were conducted using FlashPlate™ assays (NEN™-Life Science Products). FlashPlate assays were performed using recombinant human cyclin B-CDK1, human cyclin E-CDK2 or human cyclin D1-CDK4 complexes. […] The expression of the 62 Kd protein was under the control of an IPTG inducible promoter in an M15 E. coli strain. […] Purified Rb fusion protein stocks were quantitated for protein concentration, aliquoted, and stored at −70° C. […]
// values below are reported IC50
Mention the unit after the number when you answer.

Sample answers from the record:
molecule=CCCc1cc(C(=O)c2sc(Nc3ccc(OC[C@@H](C)N4CCCC4)cc3)nc2N)ccc1O reported="23 nM"
molecule=CCNCCCOc1ccc(Nc2nc(N)c(C(=O)c3ccc(OC)c(F)c3)s2)cc1 reported="67 nM"
molecule=CCN(CC)CCOc1ccc(Nc2nc(N)c(C(=O)c3cccc(SC)c3)s2)cc1 reported="47 nM"
molecule=Cc1cccc(C(=O)c2sc(Nc3ccc(OCCN4CCCC4)cc3)nc2N)c1 reported="53 nM"
molecule=CN(C)CCOc1ccc(Nc2nc(N)c(C(=O)c3ccc4c(c3)OCCO4)s2)cc1 reported="43 nM"

Query (molecule): CC1COc2ccc(C(=O)c3sc(Nc4ccc(OCCN5CCCC5)cc4)nc3N)cc21 (centres unmarked) ; field requested: IC50 63 nM

Bench note: what IC50 did COc1cccc(C(=O)c2sc(Nc3ccc(OCCn4ccnc4)cc3)nc2N)c1 show? 67 nM

###

Quick reference: pIC50 of the listed items.
- System: HCT116, a colorectal carcinoma cell line
- measurement description: Tetrazolium dye proliferation assay (MTT assay)
- Format: cell-based
- cond: Homo sapiens, HCT-116, HCT116 cells, inhibition of cell proliferation
// pIC50 here means minus log10 of the molar concentration (mol/L)

Example entries and their recorded answers appear below.
molecule=CCOc1cccc(C(=O)c2sc(Nc3ccc(OCCN4CCCC4)cc3)nc2N)c1 reported=5.89
molecule="Nc1nc(Nc2ccc(OC3CCNC3)cc2)sc1C(=O)c1cccc(C2CC2)c1 (stereo not drawn)" reported=5.69

Okay, next one:
Look at this molecule and give its reported pIC50. CCNCCOc1ccc(Nc2nc(N)c(C(=O)c3ccc(C)c(F)c3)s2)cc1 5.84

###

- test target: human cyclin D1-CDK4 (Homo sapiens)
- measurement description: FlashPlate kinase assay, cyclin D1-CDK4, Rb substrate
- cond: recombinant cyclin D1-CDK4, Rb phosphorylation, 1 μM ATP
assay endpoint: IC50 (nM)
Expressed in nM, but write only the number.

compound=COc1ccc(C(=O)c2sc(Nc3ccc(OCCN4CCCC4)cc3)nc2N)cc1[N+](=O)[O-] test_target="human cyclin D1-CDK4 (Homo sapiens)" reported=85
compound=CCNCCOc1ccc(Nc2nc(N)c(C(=O)c3cccc(C4CC4)c3)s2)cc1 test_target="human cyclin D1-CDK4 (Homo sapiens)" reported=26
compound=CCNCCOc1ccc(Nc2nc(N)c(C(=O)c3cccc(F)c3)s2)cc1 test_target="human cyclin D1-CDK4 (Homo sapiens)" reported=520
compound="CCCc1cc(C(=O)c2sc(Nc3ccc(OC4CCN(CC)C4)cc3)nc2N)ccc1O (stereo not shown)" test_target="human cyclin D1-CDK4 (Homo sapiens)" reported=19
compound="CCN1CCCC(Oc2ccc(Nc3nc(N)c(C(=O)c4ccc(O)c(F)c4)s3)cc2)C1 (stereo not shown)" test_target="human cyclin D1-CDK4 (Homo sapiens)" reported=71

Would you kindly share the measured IC50 for C[C@H](COc1ccc(Nc2nc(N)c(C(=O)c3cccc(C4CC4)c3)s2)cc1)N1CCCC1 ? 51

Which measured IC50 value corresponds to CCc1cccc(C(=O)c2sc(Nc3ccc(OC4CCN(CC)C4)cc3)nc2N)c1 (stereo not shown) ? 46

###

- test target: human cyclin D1-CDK4 (Homo sapiens, UniProt P11802)
- measurement description: FlashPlate kinase assay, cyclin D1-CDK4, Rb substrate
- cond: recombinant cyclin D1-CDK4, Rb phosphorylation, 1 μM ATP
assay endpoint: IC50 (nM)
Please state the figure in nM; there is no need to write the unit.

Some compounds with recorded IC50:
compound=CCNCCOc1ccc(Nc2nc(N)c(C(=O)c3cccc(C)c3)s2)cc1 assay_endpoint=IC50 reported=43
compound=CCCc1cc(C(=O)c2sc(Nc3ccc(OCC(C)(C)N(C)C)cc3)nc2N)ccc1O assay_endpoint=IC50 reported=26
compound=CN(C)C(C)(C)COc1ccc(Nc2nc(N)c(C(=O)c3cccc(C4CC4)c3)s2)cc1 assay_endpoint=IC50 reported=39
compound=CCCc1cc(C(=O)c2sc(Nc3ccc(OCCN4CCCC4)cc3)nc2N)ccc1O assay_endpoint=IC50 reported=14
compound="Nc1nc(Nc2ccc(OC3CCNC3)cc2)sc1C(=O)c1cccc(C2CC2)c1 (stereo not shown)" assay_endpoint=IC50 reported=42

// map CCN1CCCC(Oc2ccc(Nc3nc(N)c(C(=O)c4cccc(C5CC5)c4)s3)cc2)C1 (stereo not shown) to recorded IC50 (system: human cyclin D1-CDK4 (Homo sapiens, UniProt P11802)) 19

Please state recorded IC50 (tested on human cyclin D1-CDK4 (Homo sapiens, UniProt P11802)) of C[C@H](COc1ccc(Nc2nc(N)c(C(=O)c3cccc(F)c3)s2)cc1)N(C)C 87

###

- test target: human cyclin B-CDK1 (Homo sapiens, UniProt P06493)
- Sequence (P06493 whole entry): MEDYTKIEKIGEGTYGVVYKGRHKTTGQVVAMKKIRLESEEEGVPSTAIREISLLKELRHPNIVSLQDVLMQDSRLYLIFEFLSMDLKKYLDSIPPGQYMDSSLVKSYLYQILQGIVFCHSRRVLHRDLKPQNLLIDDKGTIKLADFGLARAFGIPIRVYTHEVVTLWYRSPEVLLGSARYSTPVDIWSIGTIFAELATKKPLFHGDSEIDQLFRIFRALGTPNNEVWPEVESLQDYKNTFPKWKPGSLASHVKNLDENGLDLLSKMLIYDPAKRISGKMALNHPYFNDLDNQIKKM
- Sequence (P14635 whole entry partner): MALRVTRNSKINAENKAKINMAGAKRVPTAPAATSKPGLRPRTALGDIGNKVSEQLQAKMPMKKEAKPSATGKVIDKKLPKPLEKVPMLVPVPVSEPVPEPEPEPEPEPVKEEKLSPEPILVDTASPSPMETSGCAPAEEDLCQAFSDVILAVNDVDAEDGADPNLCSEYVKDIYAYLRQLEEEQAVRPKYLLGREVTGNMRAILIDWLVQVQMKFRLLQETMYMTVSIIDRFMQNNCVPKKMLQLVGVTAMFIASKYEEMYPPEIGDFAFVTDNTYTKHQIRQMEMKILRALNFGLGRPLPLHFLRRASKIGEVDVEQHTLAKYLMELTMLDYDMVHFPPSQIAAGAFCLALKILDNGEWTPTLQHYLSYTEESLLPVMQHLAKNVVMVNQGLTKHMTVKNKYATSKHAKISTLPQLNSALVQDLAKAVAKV
- measurement description: FlashPlate kinase assay, cyclin B-CDK1, Rb substrate
- cond: recombinant cyclin B-CDK1, Rb phosphorylation, 1 μM ATP
assay endpoint: pIC50
The scale used: pIC50 is minus the common logarithm of the concentration in molar units.

See these solved cases before continuing.
molecule=CCCc1cc(C(=O)c2sc(Nc3ccc(OCCNCC)cc3)nc2N)ccc1O reported=6.95
molecule=Cc1ccc(C(=O)c2sc(Nc3ccc(OCCN(C)C)cc3)nc2N)cc1F reported=5.93

Turning to the following molecule.
What value of pIC50 on human cyclin B-CDK1 (Homo sapiens, UniProt P06493) does CCN1CCCC(Oc2ccc(Nc3nc(N)c(C(=O)c4cccc(F)c4)s3)cc2)C1 (stereo not drawn) have? 6.15
